assay: Compound was evaluated for the average apparent volume of distribution when administered through intravenous route; assay type: ADME, organism-based; settings: in vivo, read-out: Vd app
READOUT_KIND: Vd
Express the reported value numerically, then name its unit.

## Input Provide only the value of recorded Vd for O=C1NC(=O)C(c2ccc(C(F)(F)F)cc2)(c2ccc(C(F)(F)F)cc2)N1
## Output 0.42 L/kg

* * *

tested on: Mus musculus; experiment: Compound was evaluated for the neuro toxicity up to 4 hours after doses of <=300 mg/kg administered intraperitoneally; No toxicity; type: organism-based; conditions: in vivo, ip
READOUT_KIND: Neurotoxicity

# annotated cases, reported Neurotoxicity shown
COMPOUND	Neurotoxicity
O=C1NC(=O)C(c2ccc(C(F)(F)F)cc2)(c2cccc(C(F)(F)F)c2)N1 (configuration not stated)	No toxicity
O=C1NC(=O)C(c2ccccc2)(c2cccc(C(F)(F)F)c2)N1 (configuration not stated)	No toxicity
O=C1NC(=O)C(c2ccccc2)(c2ccc(C(F)(F)F)cc2)N1 (configuration not stated)	No toxicity
O=C1NC(=O)C(c2cccc(C(F)(F)F)c2)(c2cccc(C(F)(F)F)c2)N1	No toxicity

## Input Recall the reported Neurotoxicity of Cc1ccc(C2(c3ccc(C(F)(F)F)cc3)NC(=O)NC2=O)cc1 (configuration not stated) on Mus musculus and write it down.
## Output No toxicity

## Input Recall the reported Neurotoxicity of Cc1ccc(C2(c3cccc(C(F)(F)F)c3)NC(=O)NC2=O)cc1 (stereo in doubt; 7) on Mus musculus and write it down.
## Output No toxicity

## Input Recall the reported Neurotoxicity of Cc1cccc(C2(c3ccc(C(F)(F)F)cc3)NC(=O)NC2=O)c1 (configuration not stated) on Mus musculus and write it down.
## Output No toxicity
